- assaySystem: BRD4_2 (Homo sapiens, UniProt O60885)
- Construct: contains two tandem bromodomains (BrD1 and BrD2)
- methodDescription: Fluorescence anisotropy binding assay (competition with FITC-labeled MS417 probe), BRD4_2
- testSettings: FITC-MS417 probe 80 nM, PBS pH 7.4, 1 hour, 25° C.
# maps each entry to its IC50

{"columns": ["substanceSmiles", "IC50"],
 "data": [
  ["CC1=C(Nc2ccncc2Cl)CCCC1=O", "> 10 µM"],
  ["COc1ccc(NC(=O)c2ccc(NC3=C(C)C(=O)CC3)c(I)c2)cc1", "1 to 10 µM"],
  ["COC(=O)c1ccc(Br)c(NC2=C(C)C(=O)CCC2)c1", "> 10 µM"],
  ["CC1=C(Nc2cc(Nc3ccccc3C)ccc2Cl)CCCC1=O", "1 to 10 µM"],
  ["CC1=C(Nc2cc(C(=O)Nc3cc(C(=O)O)ccc3C)ccc2Cl)CCCC1=O", "> 10 µM"],
  ["CC1=C(Nc2ccc(C(=O)NC3CCCCC3)cc2)CCC1=O", "1 to 10 µM"],
  ["COC(=O)c1ccc(NC2=C(C)C(=O)CC2)cc1OC", "1 to 10 µM"],
  ["CC1=C(Nc2cc(NC(=O)C3CCCCC3)ccc2Cl)CCC1=O", "1 to 10 µM"],
  ["CC1=C(Nc2cccc(C(=O)NC3CCCCC3)c2)CCC1=O", "1 to 10 µM"]
]}
